Attribute: growth
tested on: HOP-62 NSCLC; assay: NCI-60 one-dose screen, 48 h (100 = growth as untreated, 0 = no growth, -100 = all killed); conditions: 10 µM unless noted
The panel holds about 83,000 compounds, 20% with a hit somewhere; the sample as a whole holds those more often.

{"COMPOUND": "CN(C)CCN1C(=O)c2c(c3c4ccccc4n4c3c3c2c2ccccc2n3C2CC(O)C(O)C4(C)O2)C1=O (stereo not given)", "growth, %": 14.2}
{"COMPOUND": "Cc1ccc(/C=C2\\COc3ccc(O)c(O)c3C2=O)cc1", "growth, %": -1.56}
{"COMPOUND": "CCOC(=O)C(=CCC(C)C)C(=O)OCC", "growth, %": 89}
{"COMPOUND": "O=C1c2cc3c(cc2-c2c1c1ccc(Cl)cc1c(=O)n2CCCn1ccnc1)OCO3", "growth, %": 5.44}
{"COMPOUND": "COc1ccc(Cl)cc1Nc1nc(C(F)(F)F)ccc1C(=O)N/N=C/c1ccc(N(C)C)cc1", "growth, %": 73.6}
{"COMPOUND": "COc1ccc(-c2cc(-c3cccc(Cl)c3)c(C#N)c(=O)[nH]2)c(OC)c1", "growth, %": 99.2}
{"COMPOUND": "CN(Cc1ccccc1)c1nc(Cl)c(C2CC(c3ccc4c(c3)OCO4)=NN2c2cc(Cl)cc(Cl)c2)s1 (stereo not given)", "growth, %": 89.2}
{"COMPOUND": "CCN(c1cc(-c2ccc(CN3CCC(/C=C/S(=O)(=O)c4ccccc4)CC3)cc2)cc(C(=O)NCc2c(C)cc(C)[nH]c2=O)c1C)C1CCOCC1", "growth, %": 82.8}
{"COMPOUND": "COC(=O)c1nc(-c2ccccc2)oc1S(=O)(=O)N(C)CCO", "growth, %": 103}
{"COMPOUND": "S=c1nc(CS)[nH]c2ccccc12", "growth, %": 89.6}
{"COMPOUND": "COc1cc(N=Nc2ccc(O)c3ncccc23)c2ncccc2c1", "growth, %": 42.7}
{"COMPOUND": "COc1cc(CNC(=O)CCCC/C=C/C(C)C)ccc1OCc1cn(-c2ccc([N+](=O)[O-])cc2)nn1", "growth, %": 80.9}
{"COMPOUND": "C=CCNC(=O)Cc1c(-c2ccc(OC)cc2)oc2c(OC)c3c(c(OC)c12)OCO3", "growth, %": 105}
{"COMPOUND": "N#CSc1c[nH]c2ccc(/C=C/C(=O)/C=C(/C=C/c3ccc4[nH]cc(SC#N)c4c3)OB(F)F)cc12", "growth, %": 14.7}
{"COMPOUND": "Cn1c(=O)c2c(nc(Nc3cc(=O)[nH]c(=O)[nH]3)n2Cc2ccccc2)n(C)c1=O", "growth, %": 20.6}
{"COMPOUND": "COc1ccc(Nc2nn3c(SCC(=O)c4ccc(C)cc4)nnc3s2)cc1", "growth, %": 90.8}
{"COMPOUND": "CCCCCCCCCCCCCCCCCCOc1cccc(CC(=O)OCC[N+](CC)(CC)CC)c1", "growth, %": 69.1}
{"COMPOUND": "O=C1N=c2ccccc2=C1c1sc(=S)n(C2CC(=O)N(c3ccc(Cl)cc3)C2=O)c1O (stereo not given)", "growth, %": 93.2}
{"COMPOUND": "C#Cc1cc(C(=O)Nc2ccc(CN3CCN(C)CC3)c(C(F)(F)F)c2)ccc1C", "growth, %": 88.5}
{"COMPOUND": "CN1CCN(c2ccc(/C=C/C(=O)c3ccc(O)cc3)cc2)CC1", "growth, %": 97.7}
{"COMPOUND": "Nc1ccc(/C=N/Nc2ccnc3c(N)cccc23)c2cccnc12", "growth, %": -64.3}
{"COMPOUND": "COC(=O)c1nc(-c2ccc(C)cc2)oc1Sc1ccc(C)cc1", "growth, %": 94}
{"COMPOUND": "COc1ccc(/C=C(\\C#N)c2cc3ccccc3[nH]2)cc1", "growth, %": 33.2}
{"COMPOUND": "CCCn1nc(C(=O)N2CCCCC2)c2c1CCC(N1CCC(c3ccncc3)CC1)C2 (stereo not given)", "growth, %": 113}
{"COMPOUND": "O=[N+]([O-])c1cc(C(F)(F)F)ccc1Sc1ccc(C(F)(F)F)cc1[N+](=O)[O-]", "growth, %": 94.6}
{"COMPOUND": "c1cc(NCCCCN2CCOCC2)c2ccc3c(ccc4c(NCCN5CCOCC5)ccnc43)c2n1", "growth, %": 81.5}
{"COMPOUND": "O=C(NCc1ccc(Cn2c(=O)sn(-c3ccc(Cl)cc3)c2=O)cc1)OCc1ccc2c(Cl)cc(Cl)c(O)c2n1", "growth, %": 38.3}
{"COMPOUND": "CCCN1C(=O)/C(=c2\\sc3n(c2=O)NC2C(N=3)N(CC)C(=O)N2CC)c2ccccc21 (stereo not given)", "growth, %": 50.8}
{"COMPOUND": "COc1ccc2c(c1)c(C(=O)c1nc(-c3cn(C)c4ccccc34)no1)cn2C", "growth, %": 92.5}
{"COMPOUND": "Cc1cnc(C(=O)NNc2nc3sc4c(c3c(=O)[nH]2)C(C)CCC4)cn1 (stereo not given)", "growth, %": 8.82}
{"COMPOUND": "OCCN1CCN(c2cc(-c3cccc(OC(F)(F)F)c3)nc3ccc(N4CCCC4)cc23)CC1", "growth, %": 48.4}
{"COMPOUND": "CCOC(=O)CCCn1c(-c2ccccc2)cc(-c2ccccc2)c(C#N)c1=O", "growth, %": 93.7}
{"COMPOUND": "O=C(N=Nc1c(O)[nH]c2ccccc12)Nc1ccccc1Cl", "growth, %": 104}
{"COMPOUND": "CCOC(=O)c1nnn(Cc2cc(=O)oc3c2ccc2ccccc23)c1C", "growth, %": 106}
{"COMPOUND": "CN(C)CCCn1c2nc(=O)[nH]c(=O)c-2nc2cc(Cl)c(Cl)cc21", "growth, %": 117}
{"COMPOUND": "CN1CCN(CCCN2c3ccccc3Sc3ccc(Cl)cc32)CC1", "growth, %": 90.4}
{"COMPOUND": "Clc1nccc2c(-c3csc(-c4c[nH]c5ccc(Br)cc45)n3)c[nH]c12", "growth, %": 7.78}
{"COMPOUND": "O=C(Nc1ncc(Cc2cccc(C(F)(F)F)c2)s1)c1ccc2c(c1)OCCO2", "growth, %": 25.2}
{"COMPOUND": "COc1ccc(-c2cc(-c3cccnc3)nc3sc4c(Cl)nnnc4c23)cc1OC", "growth, %": 98.4}
{"COMPOUND": "COC(=O)c1c2c(c(C)[n+]([O-])c1C)C(=O)C(NCCN1CCOCC1)=CC2=O", "growth, %": 101}

// data source = PubChem BioAssay (NCI)
